Recorded Kd for the following binders
# target system: T1, IFN-αF (human, UniProt P01568 24-189)
# T1 construct: also called IFN-α21; alpha F
# T1 chain: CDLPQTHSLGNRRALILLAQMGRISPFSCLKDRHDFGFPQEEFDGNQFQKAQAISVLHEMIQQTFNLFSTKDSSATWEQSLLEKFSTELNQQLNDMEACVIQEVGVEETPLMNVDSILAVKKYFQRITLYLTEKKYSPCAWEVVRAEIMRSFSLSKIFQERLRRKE
# measurement notes: ProteOn, one antigen concentration

binder	Kd (nM)
IFWM3358 (antibody, V domains shown, VH IFWH624, VL IFWL1041; converted mAb; also called IFWB3093) VH: EVQLVQSGAEVKKPGESLKISCKGSGYSFTSYWIGWVRQMPGKGLEWMGIIDPSDSDTAYSPSFQGQVTISADKSISTAYLQWSSLKASDTAMYYCARHPGLNWAPDFDYWGQGTLVTVSS VL: DIQMTQSPSSLSASVGDRVTITCRASQSITGFLNWYQQKPGKAPKLLIYAASSLQSGVPSRFSGSGSGTDFTLTISSLQPEDFATYYCQQSHDFPLTFGQGTKVEIK	0.047
IFWM3314 (antibody, V domains shown, VH IFWH591, VL IFWL1014; converted mAb; also called IFWB3049) VH: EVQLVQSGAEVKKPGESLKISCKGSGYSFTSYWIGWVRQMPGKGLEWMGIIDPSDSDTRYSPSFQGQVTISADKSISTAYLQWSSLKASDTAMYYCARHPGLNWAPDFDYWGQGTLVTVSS VL: DIQMTQSPSSLSASVGDRVTITCRASQSIDRALNWYQQKPGKAPKLLIYFASSLQSGVPSRFSGSGSGTDFTLTISSLQPEDFATYYCQQSFDFPLTFGQGTKVEIK	0.021
